- run_description: photoluminescence quantum yield (fraction); solvent given as SMILES
- condition_set: in ClCCl
endpoint_name: photoluminescence quantum yield

CN(C)c1ccc(-c2c(/C=C3/C=Cc4ccccc4N3C)c(=O)c2=O)cc1	0.001
CC1=C(c2ccccc2)C(C)=[N+]2C1=C(c1c(-c3ccccn3)nc3ccccn13)c1c(C)cc(C)n1[B-]2(F)F	0.739
COc1ccc(-c2ccc(/C=C/c3ccncn3)cc2)cc1	0.14
CCCCN1c2ccccc2Sc2cc(/C=C/c3nc4nc5ccccc5nc4s3)ccc21	0.008
CN(C)c1nc(N)c2nc(C#N)n(Cc3ccccc3)c2n1	0.95
CCCCn1c2ccccc2c2ccc(C#Cc3ccc4ccc5cccc6ccc3c4c56)cc21	0.62
CCCCN(CCCC)c1ccc(C#Cc2cc(C#Cc3ccc(N(CCCC)CCCC)cc3)c(C#Cc3c(F)c(F)c(F)c(F)c3F)cc2C#Cc2c(F)c(F)c(F)c(F)c2F)cc1	0.3
CC(C)(C)c1ccc(-c2cc(-c3ccc(-c4cc(-c5ccc(C(C)(C)C)cc5)c(C(=O)NCc5ccccc5)s4)s3)sc2C(=O)NCc2ccccc2)cc1	0.33
CCOC(=O)/N=c1/oc2cc(OC)ccc2cc1C#N	0.0065
Cc1cc(-c2ccc(C(C)(C)C)cc2)c2nsnc2c1-c1ccc(N(c2ccccc2)c2ccccc2)cc1	0.18

[I] CN(C)c1nc(N(C)C)c2nc(C#N)n(Cc3ccccc3)c2n1
[II] C[Si]1(C)O[Si](C)(C)c2cc3c(-c4ccccc4F)c4cc(Cl)ccc4nc3cc21
Min photoluminescence quantum yield? I | II In your reply, give the label of the chosen option.
I
(I: 0.2, II: 0.56)
